Tested on: Escherichia coli
Assay: Effect of inoculum size on susceptibility of Enterobacteriaceae
Settings: read-out: Minimum Inhibitory Concentration, Escherichia coli strain 6, A, Inoculum of 10^2 organisms
readout: MIC
Your reply should be a number followed by the unit it is expressed in.

# count of solved cases: 3
CC(=O)OCC1=C(C(=O)O)N2C(=O)[C@@H](NC(=O)Cc3cccs3)[C@H]2SC1 [Cephalothin] = 8 µg/mL
NCc1ccccc1CC(=O)N[C@@H]1C(=O)N2C(C(=O)O)=C(CSc3nnnn3CC(=O)O)CS[C@H]12 [Example 1] = 0.5 µg/mL
O=C(Cc1cccs1)N[C@@H]1C(=O)N2C(C(=O)[O-])=C(C[n+]3ccccc3)CS[C@H]12 [Cephaloridine] = 2 µg/mL

Now for a further compound.
In: Read off the recorded MIC for Cc1nnc(SCC2=C(C(=O)O)N3C(=O)[C@@H](NC(=O)Cn4cnnn4)[C@H]3SC2)s1 [Cefazolin]
Out: 1 µg/mL

====

Listed compounds paired with reported MIC
Test system: Escherichia coli
Test: Minimum growth inhibitory and bactericidal concentrations for Enterobacteriaceae
Type: cell-based
Settings: Escherichia coli strain 2, inoculum 10^4 cells, read-out: MIC, Minimum growth inhibitory concentration
Respond numerically; units are µg/mL and should not be typed.

Cc1nnc(SCC2=C(C(=O)O)N3C(=O)[C@@H](NC(=O)Cn4cnnn4)[C@H]3SC2)s1 = 8
NCc1ccccc1CC(=O)N[C@@H]1C(=O)N2C(C(=O)O)=C(CSc3nnnn3CC(=O)O)CS[C@H]12 = 16
O=C(Cc1cccs1)N[C@@H]1C(=O)N2C(C(=O)[O-])=C(C[n+]3ccccc3)CS[C@H]12 = 16

Now for a further compound.
In: Read off the recorded MIC for CC(=O)OCC1=C(C(=O)O)N2C(=O)[C@@H](NC(=O)Cc3cccs3)[C@H]2SC1
Out: 32

====

Test system: Klebsiella pneumoniae
Test: Minimum growth inhibitory and bactericidal concentrations for Enterobacteriaceae
Assay type: cell-based
Conditions: Klebsiella pneumoniae strain 1, inoculum 10^4 cells, read-out: MIC, Minimum growth inhibitory concentration
readout: MIC (µg/mL)
Respond numerically; units are µg/mL and should not be typed.

# count of solved cases: 3
CC(=O)OCC1=C(C(=O)O)N2C(=O)[C@@H](NC(=O)Cc3cccs3)[C@H]2SC1 = 2
NCc1ccccc1CC(=O)N[C@@H]1C(=O)N2C(C(=O)O)=C(CSc3nnnn3CC(=O)O)CS[C@H]12 = 0.25
Cc1nnc(SCC2=C(C(=O)O)N3C(=O)[C@@H](NC(=O)Cn4cnnn4)[C@H]3SC2)s1 = 2

In: Read off the recorded MIC for O=C(Cc1cccs1)N[C@@H]1C(=O)N2C(C(=O)[O-])=C(C[n+]3ccccc3)CS[C@H]12
Out: 2

====

Test system: Proteus mirabilis
Experiment: Minimum growth inhibitory and bactericidal concentrations for Enterobacteriaceae
Format: cell-based
Conditions: Proteus mirabilis strain 5, inoculum 10^4 cells, read-out: MIC, Minimum growth inhibitory concentration
From the text: Miscellaneous. Methods for determining bactericidal activity and susceptibility to cell-free β-lactamase were those previously used; Leitner et al., BL-S640, A Cephalosporin With a Broad Spectrum of Antibacterial Activity: Properties in vitro, Antimicrob. Agents Chemother. 7:298-305 (1975). *MIC, Minimum growth inhibitory concentration; MBC, minimum bactericidal concentration; expressed as micrograms per milliliter. The inoculum was […]
Listed compounds paired with reported MIC
Respond numerically; units are µg/mL and should not be typed.

NCc1ccccc1CC(=O)N[C@@H]1C(=O)N2C(C(=O)O)=C(CSc3nnnn3CC(=O)O)CS[C@H]12 = 0.5
Cc1nnc(SCC2=C(C(=O)O)N3C(=O)[C@@H](NC(=O)Cn4cnnn4)[C@H]3SC2)s1 = 8
CC(=O)OCC1=C(C(=O)O)N2C(=O)[C@@H](NC(=O)Cc3cccs3)[C@H]2SC1 = 8

In: Read off the recorded MIC for O=C(Cc1cccs1)N[C@@H]1C(=O)N2C(C(=O)[O-])=C(C[n+]3ccccc3)CS[C@H]12
Out: 4

====

System: Klebsiella pneumoniae
Experiment: Minimum growth inhibitory and bactericidal concentrations for Enterobacteriaceae
Format: cell-based
Details: Klebsiella pneumoniae strain 4, inoculum 10^4 cells, read-out: MBC, minimum bactericidal concentration
Listed molecules paired with reported MBC
Your reply should be a number followed by the unit it is expressed in.

# count of solved cases: 3
O=C(Cc1cccs1)N[C@@H]1C(=O)N2C(C(=O)[O-])=C(C[n+]3ccccc3)CS[C@H]12 = 4 µg/mL
Cc1nnc(SCC2=C(C(=O)O)N3C(=O)[C@@H](NC(=O)Cn4cnnn4)[C@H]3SC2)s1 = 4 µg/mL
NCc1ccccc1CC(=O)N[C@@H]1C(=O)N2C(C(=O)O)=C(CSc3nnnn3CC(=O)O)CS[C@H]12 = 0.5 µg/mL

Now for a further molecule.
In: Read off the recorded MBC for CC(=O)OCC1=C(C(=O)O)N2C(=O)[C@@H](NC(=O)Cc3cccs3)[C@H]2SC1
Out: 4 µg/mL

====

Assay: Blood level in mice after intramuscular injection (Example 7)
Type: in vivo
Conditions: mouse, im, intramuscularly, 10 mg./kg. of body weight, at 15 minutes
Procedure: The IR and NMR were consistent with the title product, but indicated about 20% impurities, primarily starting material. When this compound was administered intramuscularly by injection at a dose of 10 mg./kg. of body weight in mice, a blood level of […]. was obtained at 15 minutes.
readout: concentration at 0.25 h (µg/mL)
Respond numerically; units are µg/mL and should not be typed.

In: Read off the recorded concentration at 0.25 h for NCc1ccccc1CC(=O)N[C@@H]1C(=O)N2C(C(=O)O)=C(CSc3nnnn3CCC(=O)O)CS[C@H]12
Out: 22300

====

Experiment: in vitro
Type: in vitro ADME, human
Conditions: human, serum; read-out: protein bound (converted)
readout: fraction unbound
Respond with the number and no other words.

O=C(Cc1cccs1)N[C@@H]1C(=O)N2C(C(=O)[O-])=C(C[n+]3ccccc3)CS[C@H]12 = 0.7

Now for a further compound.
In: Read off the recorded fraction unbound for CC(=O)OCC1=C(C(=O)O)N2C(=O)[C@@H](NC(=O)Cc3cccs3)[C@H]2SC1
Out: 0.33

====

Assay: physchem
Conditions: solid
Counter-ions that a name gives are not always drawn.
readout: degraded at 730 h

In: Read off the recorded degraded at 730 h for NCc1ccccc1CC(=O)N[C@@H]1C(=O)N2C(C(=O)O)=C(CSc3nnnn3CC(=O)O)CS[C@H]12 [BL-S786: L-Lysine Salt]
Out: < 10%

====

Listed compounds paired with reported MIC
Tested on: Klebsiella pneumoniae
Test: Effect of inoculum size on susceptibility of Enterobacteriaceae
Settings: read-out: Minimum Inhibitory Concentration, Klebsiella pneumoniae strain 4, B, Inoculum of 10^6 organisms
Respond numerically; units are µg/mL and should not be typed.

# count of solved cases: 3
NCc1ccccc1CC(=O)N[C@@H]1C(=O)N2C(C(=O)O)=C(CSc3nnnn3CC(=O)O)CS[C@H]12 = 4
CC(=O)OCC1=C(C(=O)O)N2C(=O)[C@@H](NC(=O)Cc3cccs3)[C@H]2SC1 = 8
O=C(Cc1cccs1)N[C@@H]1C(=O)N2C(C(=O)[O-])=C(C[n+]3ccccc3)CS[C@H]12 = 8

Now for a further compound.
In: Read off the recorded MIC for Cc1nnc(SCC2=C(C(=O)O)N3C(=O)[C@@H](NC(=O)Cn4cnnn4)[C@H]3SC2)s1
Out: 4

====

System: Proteus rettgeri
Experiment: Minimum growth inhibitory and bactericidal concentrations for Enterobacteriaceae
Format: cell-based
Conditions: Providencia rettgeri, Proteus rettgeri strain 2; inoculum 10^4 cells; read-out: MBC, minimum bactericidal concentration
Excerpt: Miscellaneous. Methods for determining bactericidal activity and susceptibility to cell-free β-lactamase were those previously used; Leitner et al., BL-S640, A Cephalosporin With a Broad Spectrum of Antibacterial Activity: Properties in vitro, Antimicrob. Agents Chemother. 7:298-305 (1975). *MIC, Minimum growth inhibitory concentration; MBC, minimum bactericidal concentration; expressed as micrograms per milliliter. The inoculum was […]
readout: MBC (µg/mL)
Respond numerically; units are µg/mL and should not be typed.

In: Please tell me the measured MBC for NCc1ccccc1CC(=O)N[C@@H]1C(=O)N2C(C(=O)O)=C(CSc3nnnn3CC(=O)O)CS[C@H]12 ; system: Proteus rettgeri.
Out: 0.13

In: Please tell me the measured MBC for Cc1nnc(SCC2=C(C(=O)O)N3C(=O)[C@@H](NC(=O)Cn4cnnn4)[C@H]3SC2)s1 ; system: Proteus rettgeri.
Out: 0.5

In: Please tell me the measured MBC for O=C(Cc1cccs1)N[C@@H]1C(=O)N2C(C(=O)[O-])=C(C[n+]3ccccc3)CS[C@H]12 ; system: Proteus rettgeri.
Out: 0.5

In: Please tell me the measured MBC for CC(=O)OCC1=C(C(=O)O)N2C(=O)[C@@H](NC(=O)Cc3cccs3)[C@H]2SC1 ; system: Proteus rettgeri.
Out: 2

====

System: Escherichia coli
Assay: Effect of inoculum size on susceptibility of Enterobacteriaceae
Conditions: read-out: Minimum Inhibitory Concentration, Escherichia coli strain 7, B, Inoculum of 10^6 organisms
Listed molecules paired with reported MIC
Respond numerically; units are µg/mL and should not be typed.

Cc1nnc(SCC2=C(C(=O)O)N3C(=O)[C@@H](NC(=O)Cn4cnnn4)[C@H]3SC2)s1 = 2
O=C(Cc1cccs1)N[C@@H]1C(=O)N2C(C(=O)[O-])=C(C[n+]3ccccc3)CS[C@H]12 = 4
CC(=O)OCC1=C(C(=O)O)N2C(=O)[C@@H](NC(=O)Cc3cccs3)[C@H]2SC1 = 8

Now for a further molecule.
In: Read off the recorded MIC for NCc1ccccc1CC(=O)N[C@@H]1C(=O)N2C(C(=O)O)=C(CSc3nnnn3CC(=O)O)CS[C@H]12
Out: 2
